Test: Stability in PBS, HEPES buffer and Mueller Hinton broth
Assay type: physicochemical
Details: PBS, pH 7.4; read-out: t1/2 PBS
Let's look at some molecules and their measured half-life.
READOUT TYPE: half-life

CSCC[C@H](NC=O)C(=O)N[C@@H](CC(C)C)C(=O)Oc1ccc(CSc2cccc[n+]2[O-])cc1 | > 12 h
CCn1cc(C(=O)O)c(=O)c2cc(F)c(N3CCN(C(=O)OCc4ccc(OC(=O)[C@H](CC(C)C)NC(=O)[C@H](CCSC)NC=O)cc4)CC3)cc21 | > 12 h

----------
Experiment: Stability in human plasma
Type: in vitro ADME
Settings: read-out: t1/2 Human Plasma
READOUT TYPE: half-life (min)

CCn1cc(C(=O)O)c(=O)c2cc(F)c(N3CCN(C(=O)OCc4ccc(OC(=O)[C@H](CC(C)C)NC(=O)[C@H](CCSC)NC=O)cc4)CC3)cc21 | 4.1
